Reported DC50 is given for each of the following compounds.
TARGET_OF_ASSAY: Cbl-b (Homo sapiens, UniProt Q13191)
Construct: Cbl-b-HiBit KI Jurkat Cells were purchased from Promega; host or cells: Cbl-b-HiBiT knock-in Jurkat cells
Sequence (Q13191 whole entry): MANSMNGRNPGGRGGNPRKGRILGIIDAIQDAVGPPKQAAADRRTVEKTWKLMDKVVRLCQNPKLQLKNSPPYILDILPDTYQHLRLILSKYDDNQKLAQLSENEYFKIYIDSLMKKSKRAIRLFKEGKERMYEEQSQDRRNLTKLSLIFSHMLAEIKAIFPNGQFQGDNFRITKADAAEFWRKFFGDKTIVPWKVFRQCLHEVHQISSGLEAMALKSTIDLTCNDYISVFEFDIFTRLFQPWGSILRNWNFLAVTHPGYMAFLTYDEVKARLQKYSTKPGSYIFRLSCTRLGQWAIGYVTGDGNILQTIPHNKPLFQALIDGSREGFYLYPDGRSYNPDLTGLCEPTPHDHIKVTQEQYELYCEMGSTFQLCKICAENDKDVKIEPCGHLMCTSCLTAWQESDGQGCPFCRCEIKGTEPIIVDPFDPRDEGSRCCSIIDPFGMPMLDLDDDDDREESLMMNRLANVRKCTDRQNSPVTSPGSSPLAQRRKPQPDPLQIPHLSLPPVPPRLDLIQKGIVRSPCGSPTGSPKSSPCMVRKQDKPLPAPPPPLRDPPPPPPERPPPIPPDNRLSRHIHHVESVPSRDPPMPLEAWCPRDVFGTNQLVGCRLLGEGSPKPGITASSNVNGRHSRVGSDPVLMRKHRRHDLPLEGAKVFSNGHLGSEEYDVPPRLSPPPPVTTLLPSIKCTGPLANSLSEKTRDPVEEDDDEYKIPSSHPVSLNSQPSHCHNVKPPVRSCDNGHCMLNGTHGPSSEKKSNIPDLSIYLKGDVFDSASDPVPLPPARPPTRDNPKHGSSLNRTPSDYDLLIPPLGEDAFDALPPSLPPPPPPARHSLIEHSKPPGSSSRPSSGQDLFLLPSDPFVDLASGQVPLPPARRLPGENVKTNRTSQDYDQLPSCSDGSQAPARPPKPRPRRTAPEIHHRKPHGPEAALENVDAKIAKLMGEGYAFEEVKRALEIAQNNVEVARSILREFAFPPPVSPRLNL
ASSAY_PROCEDURE: Cbl-b Degradation Method A (FACS, anti-Cbl-b antibody staining)
Assay type: cell-based
CONDITION_INFO: Cbl-b-HiBit KI Jurkat Cells, incubated at least 20 hours; half maximal degradation; read-out: Cbl-b Degredation Method A IC50

Consider the worked cases shown below.
CC1c2cc(N3CCC(CN4CCC5(CC4)CN(c4cc6c(c(C(F)(F)F)c4)CN(c4cccc(C7(Cc8nncn8C)COC7)c4)C6=O)C5)CC3)ccc2C(=O)N1C1CCC(=O)NC1=O (centres unmarked) [Example 138]: 0.005 to 0.05 µM
CC1c2nc(N3CCC(O[C@H]4CC[C@H](CN5CCC6(C5)CN(c5cc7c(c(C(F)(F)F)c5)CN(c5cccc([C@]8(Cc9nncn9C)C[C@@H](C#N)C8)c5)C7=O)C6)CC4)CC3)ccc2C(=O)N1C1CCC(=O)NC1=O (some centres unmarked) [Example 178]: 0.005 to 0.05 µM
CC1c2nc(N3CCC(O[C@H]4CC[C@@H](CN5C[C@@H]6C[C@H]5CN6Cc5cc6c(c(C(F)(F)F)c5)CN(c5cccc(C7(Cc8nncn8C)CCC7)c5)C6=O)CC4)CC3)ccc2C(=O)N1C1CCC(=O)NC1=O (some centres unmarked) [Example 223]: 0.005 to 0.05 µM
Cn1cnnc1CC1(c2cccc(N3Cc4c(cc(N5CCC6(CCN(c7ccc8c(c7)C(=O)N(C7CCC(=O)NC7=O)C8=O)CC6)CC5)cc4C(F)(F)F)C3=O)c2)COC1 (centres unmarked) [Example 125]: > 0.5 µM

Turning now to a further compound:
## Task Kindly indicate its recorded DC50. Item: Cn1cnnc1CC1(c2cccc(N3Cc4c(cc(N5CCC(CN6CC7(CCN(c8ccc9c(c8)C(=O)N(C8CCC(=O)NC8=O)C9=O)CC7)C6)CC5)cc4C(F)(F)F)C3=O)c2)COC1 (centres unmarked) [Example 11]
## Result 0.005 to 0.05 µM

====

Reported DC50 is given for each of the following compounds.
TARGET_OF_ASSAY: Cbl-b (Homo sapiens, UniProt Q13191)
Construct: Cbl-b-HiBit KI Jurkat Cells were purchased from Promega; host or cells: Cbl-b-HiBiT knock-in Jurkat cells
ASSAY_PROCEDURE: Cbl-b Degradation Method A (FACS, anti-Cbl-b antibody staining)
Format: cell-based
CONDITION_INFO: Cbl-b-HiBit KI Jurkat Cells, incubated at least 20 hours; half maximal degradation; read-out: Cbl-b Degredation Method A IC50

Cn1cnnc1CC1(c2cccc(N3Cc4c(cc(CN5CCN(C6CCC7(CC6)CCN(c6ccc8c(c6)C(=O)N(C6CCC(=O)NC6=O)C8=O)CC7)CC5)cc4C(F)(F)F)C3=O)c2)COC1 (centres unmarked): > 500 nM

## Task Kindly indicate its recorded DC50. Item: CC1c2nc(N3CCC(O[C@H]4CC[C@@H](CN5CCN(C[C@H]6CCCN(Cc7cc8c(c(C(F)(F)F)c7)CN(c7cccc(C9(Cc%10nncn%10C)COC9)c7)C8=O)C6)CC5)CC4)CC3)ccc2C(=O)N1C1CCC(=O)NC1=O (some centres unmarked)
## Result < 5 nM
